molecular target: Cytochrome P450 2C19 (Homo sapiens, UniProt P33261); experiment: Inhibition of CYP2C19; assay type: ADME
Sequence (P33261 whole entry): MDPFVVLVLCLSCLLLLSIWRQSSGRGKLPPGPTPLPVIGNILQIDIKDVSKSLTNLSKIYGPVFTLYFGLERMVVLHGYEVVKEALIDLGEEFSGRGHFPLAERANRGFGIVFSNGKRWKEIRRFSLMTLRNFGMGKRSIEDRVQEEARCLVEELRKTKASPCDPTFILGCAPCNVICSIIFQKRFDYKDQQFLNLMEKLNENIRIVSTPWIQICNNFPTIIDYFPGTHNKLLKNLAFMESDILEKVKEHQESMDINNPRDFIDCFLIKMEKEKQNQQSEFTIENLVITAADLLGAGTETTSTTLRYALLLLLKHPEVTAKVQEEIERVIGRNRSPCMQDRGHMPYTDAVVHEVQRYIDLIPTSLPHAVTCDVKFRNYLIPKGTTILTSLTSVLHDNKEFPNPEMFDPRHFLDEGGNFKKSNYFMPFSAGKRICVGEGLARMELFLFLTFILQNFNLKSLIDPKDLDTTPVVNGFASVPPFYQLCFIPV
ASSAY ENDPOINT: IC50

Query Nc1nccn2c1c(-c1ccc3ccc(-c4ccccc4)nc3c1F)nc2[C@H]1CC[C@H](C(=O)Nc2nc3ccccc3[nH]2)CC1 yields IC50 of > 20 µM

---

assay: Permeability of the compound at pH 5 by PAMPA; assay type: ADME; settings: read-out: permeability
Each item that follows carries a reported Papp.

Observe how each entry below is paired with its result.
molecule Nc1nccn2c1c(-c1ccc3ccc(-c4ccccc4)nc3c1F)nc2[C@H]1CC[C@H](C(N)=O)CC1 , Papp observed: 450 nm/s

Nc1nccn2c1c(-c1ccc3ccc(-c4ccccc4)nc3c1F)nc2[C@H]1CC[C@H](C(=O)Nc2nncs2)CC1 yielded Papp of 730 nm/s

Reported Papp of Nc1nccn2c1c(-c1ccc3ccc(-c4ccccc4)nc3c1F)nc2[C@H]1CC[C@H](C(=O)Nc2nc3ccccc3[nH]2)CC1 : 5380 nm/s

Further cases:
Value of Papp reported for the molecule Nc1nccn2c1c(-c1ccc3ccc(-c4ccccc4)nc3c1F)nc2[C@H]1CC[C@H](C(=O)O)CC1 is > 10000 nm/s

What the record says about Nc1nccn2c1c(-c1ccc3ccc(-c4ccccc4)nc3c1F)nc2[C@H]1CC[C@H](CO)CC1 : Papp is 8800 nm/s

Cited source: ChEMBL document CHEMBL1667832
